Reported pIC50 values for a set of molecules
# Tested on: 463943-066-T-J2-PDC complex spheroid growth;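 note: compound exposure lasted 7 days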
# experimental.details: Anticancer human tumor 463943-066-T-J2-PDC patient-derived colon adenocarcinoma cell line growth inhibition [Asc]
# condition: curve of first compound; second compound 0.0949 µM
pIC50: −log10 of the molar value.

Illustrative cases are given below, each with its answer.
| molecule | tested.target | result |
| --- | --- | --- |
| O=C(c1cc(Cc2n[nH]c(=O)c3ccccc23)ccc1F)N1CCN(C(=O)C2CC2)CC1 + CCN1C(C(=O)NC23CCC(C(=O)O)(CC2)CC3)C(c2cccc(Cl)c2F)C2(C(=O)Nc3cc(Cl)ccc32)C12CCCCC2 | 463943-066-T-J2-PDC complex spheroid growth | < 5.00 |
| CCN1CCN(Cc2ccc(Nc3ncc(F)c(-c4cc(F)c5nc(C)n(C(C)C)c5c4)n3)nc2)CC1 + CCN1C(C(=O)NC23CCC(C(=O)O)(CC2)CC3)C(c2cccc(Cl)c2F)C2(C(=O)Nc3cc(Cl)ccc32)C12CCCCC2 | 463943-066-T-J2-PDC complex spheroid growth | < 6.00 |

Given the molecule Cc1nc(N2CCC3(CC2)COC(C)C3N)c(CO)nc1Sc1ccnc(N)c1Cl (stereo not drawn) + CCN1C(C(=O)NC23CCC(C(=O)O)(CC2)CC3)C(c2cccc(Cl)c2F)C2(C(=O)Nc3cc(Cl)ccc32)C12CCCCC2 and test system 463943-066-T-J2-PDC complex spheroid growth, the measured pIC50 is < 5.52
